- System: Human immunodeficiency virus 1
- PROCEDURE TEXT: Antiviral activity against HIV1 harboring VSV glycoprotein-G co-transfected with luciferase gene infected in human TZM-bl cells assessed as inhibition of viral replication at 10 uM after 48 hrs by microplate luminometer based luciferase assay
- Type: functional
- CONDITIONS: Human immunodeficiency virus 1, TZM-bl, 48 h
READOUT KIND: inhibition at 10 µM (%)
Express the result in % but write the number alone.

Reference set, count: 5
- SMILES INPUT: "COc1nc(C(C)(C)NC(=O)c2nnc(C)o2)nc(C(=O)NCc2ccc(F)cc2)c1[O-].[K+]"
  inhibition at 10 µM / %: 92.9
- SMILES INPUT: "Cc1nnc(C(=O)NC(C)(C)c2nc(C(=O)NCc3ccc(F)cc3)c(OC(=O)c3ccccc3)c(=O)n2C)o1"
  inhibition at 10 µM / %: 100
- SMILES INPUT: "CC(=O)Oc1c(C(=O)NCc2ccc(F)cc2)nc(C(C)(C)NC(=O)c2nnc(C)o2)n(C)c1=O"
  inhibition at 10 µM / %: 95.1
- SMILES INPUT: "CCN(CC)C(=O)C(=O)NC(C)(C)c1nc(C(=O)NCc2ccc(F)cc2)c(OS(C)(=O)=O)c(=O)n1C"
  inhibition at 10 µM / %: 93.7
- SMILES INPUT: "CCN(CC)C(=O)C(=O)NC(C)(C)c1nc(OC)c(OC(=O)c2ccccc2)c(C(=O)OC)n1"
  inhibition at 10 µM / %: 19.8

Lab note: CCN(CC)C(=O)C(=O)NC(C)(C)c1nc(C(=O)OC)c(OC(=O)c2ccccc2)c(=O)n1C gave inhibition at 10 µM of -2.7

Lab note: CCN(CC)C(=O)C(=O)NC(C)(C)c1nc(OC)c(OS(C)(=O)=O)c(C(=O)NCc2ccc(F)cc2)n1 gave inhibition at 10 µM of 28.6

Lab note: COc1nc(C(C)(C)NC(=O)c2nnc(C)o2)nc(C(=O)NCc2ccc(F)cc2)c1OS(C)(=O)=O gave inhibition at 10 µM of 88.3

----------
- System: Human immunodeficiency virus 1
- PROCEDURE TEXT: Antiviral activity against HIV1 harboring VSV glycoprotein-G co-transfected with luciferase gene infected in human TZM-bl cells assessed as inhibition of viral replication at 10 uM after 48 hrs by microplate luminometer based luciferase assay
- Type: functional
- CONDITIONS: Human immunodeficiency virus 1, TZM-bl, 48 h
inhibition at 10 µM below 90% gives not satisfied; inhibition at 10 µM at or above it gives satisfied.

Worked set:
- MOLECULE: "Cc1nnc(C(=O)NC(C)(C)c2nc(C(=O)NCc3ccc(F)cc3)c(O)c(=O)n2C)o1 [RALTEGRAVIR POTASSIUM]"
  EXPERIMENTAL TARGET: "Human immunodeficiency virus 1"
  GROUP LABEL: "satisfied"
- MOLECULE: "CCN(CC)C(=O)C(=O)NC(C)(C)c1nc(OC)c(OC(=O)c2ccccc2)c(C(=O)NCc2ccc(F)cc2)n1"
  EXPERIMENTAL TARGET: "Human immunodeficiency virus 1"
  GROUP LABEL: "not satisfied"

Exercise: Answer whether inhibition at 10 µM of Cc1cc(C)c(S(=O)(=O)Oc2c(C(=O)NCc3ccc(F)cc3)nc(C(C)(C)NC(=O)c3nnc(C)o3)n(C)c2=O)c(C)c1 is greater than or equal to 90%.
Key: satisfied

Exercise: Answer whether inhibition at 10 µM of CCN(CC)C(=O)C(=O)NC(C)(C)c1nc(OC)c(OS(=O)(=O)c2c(C)cc(C)cc2C)c(C(=O)NCc2ccc(F)cc2)n1 is greater than or equal to 90%.
Key: not satisfied

Exercise: Answer whether inhibition at 10 µM of Cc1nnc(C(=O)NC(C)(C)c2nc(NCc3ccc(F)cc3)c(O)c(C(=O)NCc3ccc(F)cc3)n2)o1 is greater than or equal to 90%.
Key: not satisfied

Exercise: Answer whether inhibition at 10 µM of CCN(CC)C(=O)C(=O)NC(C)(C)c1nc(OC)c(OC(C)=O)c(C(=O)NCc2ccc(F)cc2)n1 is greater than or equal to 90%.
Key: not satisfied

Exercise: Answer whether inhibition at 10 µM of CCN(CC)C(=O)C(=O)NC(C)(C)c1nc(C(=O)NCc2ccc(F)cc2)c(OC(=O)c2ccccc2)c(=O)n1C is greater than or equal to 90%.
Key: satisfied

----------
- Tested on: Human immunodeficiency virus 1
- PROCEDURE TEXT: Antiviral activity against HIV1 harboring VSV glycoprotein-G co-transfected with luciferase gene infected in human TZM-bl cells assessed as inhibition of viral replication at 10 uM after 48 hrs by microplate luminometer based luciferase assay
- Format: functional
- CONDITIONS: Human immunodeficiency virus 1, TZM-bl, 48 h
inhibition at 10 µM below 90% gives -1; inhibition at 10 µM at or above it gives 1.

Worked set:
- MOLECULE: "CCN(CC)C(=O)C(=O)NC(C)(C)c1nc(OC)c(O)c(C(=O)NCc2ccc(F)cc2)n1"
  GROUP LABEL: -1
- MOLECULE: "COc1nc(C(C)(C)NC(=O)c2nnc(C)o2)nc(C(=O)NCc2ccc(F)cc2)c1OC(=O)c1ccccc1"
  GROUP LABEL: 1
- MOLECULE: "CCN(CC)C(=O)C(=O)NC(C)(C)c1nc(C(=O)NCc2ccc(F)cc2)c(O)c(=O)n1C"
  GROUP LABEL: 1

Exercise: Answer whether inhibition at 10 µM of CCN(CC)C(=O)C(=O)NC(C)(C)c1nc(C(=O)NCc2ccc(F)cc2)c(OS(=O)(=O)c2c(C)cc(C)cc2C)c(=O)n1C is greater than or equal to 90%.
Key: -1

Exercise: Answer whether inhibition at 10 µM of Cc1cn([C@H]2C[C@H](N=[N+]=[N-])[C@@H](CO)O2)c(=O)[nH]c1=O [ZIDOVUDINE] is greater than or equal to 90%.
Key: 1

Exercise: Answer whether inhibition at 10 µM of COc1nc(C(C)(C)NC(=O)c2nnc(C)o2)nc(C(=O)NCc2ccc(F)cc2)c1OC(C)=O is greater than or equal to 90%.
Key: 1

Exercise: Answer whether inhibition at 10 µM of COc1nc(C(C)(C)NC(=O)c2nnc(C)o2)nc(C(=O)NCc2ccc(F)cc2)c1OS(=O)(=O)c1c(C)cc(C)cc1C is greater than or equal to 90%.
Key: -1

Exercise: Answer whether inhibition at 10 µM of CCN(CC)C(=O)C(=O)NC(C)(C)c1nc(C(=O)NCc2ccc(F)cc2)c(OC(C)=O)c(=O)n1C is greater than or equal to 90%.
Key: 1

Exercise: Answer whether inhibition at 10 µM of Cc1nnc(C(=O)NC(C)(C)c2nc(C(=O)NCc3ccc(F)cc3)c(OS(C)(=O)=O)c(=O)n2C)o1 is greater than or equal to 90%.
Key: 1

Where do the numbers come from? From ChEMBL document CHEMBL1949625.
